Here, each record is paired with measured EC50 data.
# STUDY SYSTEM: T1, human SIRPβ1 isoform 1 on cells (human, UniProt O00241 30-398)
# T1 construct: On CHO cells (low level), on BWZ/BW5147.G.1.4 cells (reporter cells co-express human DAP12) or on primary human myeloid cells; also called huSIRPβ1; BWZ-huSIRPβ1
# T1 sequence (O00241 30-398): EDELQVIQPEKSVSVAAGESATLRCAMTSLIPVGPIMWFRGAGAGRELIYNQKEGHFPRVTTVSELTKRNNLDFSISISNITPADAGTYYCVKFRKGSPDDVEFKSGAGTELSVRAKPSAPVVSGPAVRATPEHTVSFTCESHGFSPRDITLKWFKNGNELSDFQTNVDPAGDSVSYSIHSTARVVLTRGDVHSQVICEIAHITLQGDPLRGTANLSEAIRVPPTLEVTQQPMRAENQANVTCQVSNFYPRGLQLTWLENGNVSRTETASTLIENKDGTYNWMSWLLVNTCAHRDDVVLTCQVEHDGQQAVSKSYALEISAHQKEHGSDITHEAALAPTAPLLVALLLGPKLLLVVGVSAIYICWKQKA
# MEASUREMENT NOTES: cell binding titration; target not given
Give the number; pM is assumed, so skip it.

Solved cases (3 shown):
1) SB-1-3 (antibody, V domains shown, IgG) VH: EVQLVESGGGLVKPGGSLRLSCAASGFTFSAYGMNWVRQAPGKGLEWVSAITSSGRSTYYADSVKGRFTISRDNSKNTLYLQMNSLRAEDTAVYYCAKDFTEVVGWLGMDVWGQGTTVTVSS VL: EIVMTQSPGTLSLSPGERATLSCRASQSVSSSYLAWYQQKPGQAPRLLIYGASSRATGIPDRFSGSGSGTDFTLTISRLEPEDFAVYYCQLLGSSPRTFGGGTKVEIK: 62
2) SB-8-15 (antibody, V domains shown, IgG) VH: QVQLQESGPGLVKPSETLSLTCAVSGYSISAHYYWGWIRQPPGKGLEWIGSIYQSGHTYYNPSLKSRVTISVDTSKNQFSLKLSSVTAADTAVYYCARGGAMTPAGMDVWGQGTTVTVSS VL: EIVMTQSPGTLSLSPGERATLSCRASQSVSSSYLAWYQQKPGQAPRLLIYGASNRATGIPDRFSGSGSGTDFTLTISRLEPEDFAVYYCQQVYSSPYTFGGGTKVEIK: 737
3) SB-2-9 (antibody, V domains shown, IgG) VH: QVQLVESGGGVVQPGRSLRLSCAASGFTFKTYGMHWVRQAPGKGLEWVAHIWYEGSNKVYADSVKGRFTISRDNSKNTLYLQMNSLRAEDTAVYYCARDQTAAAAIWGMDVWGQGTTVTVSS VL: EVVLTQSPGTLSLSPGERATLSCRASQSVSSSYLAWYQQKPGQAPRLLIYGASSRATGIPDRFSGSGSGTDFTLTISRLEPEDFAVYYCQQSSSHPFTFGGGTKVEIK: 469

Exercise: Requested field: EC50. Item: SB-1-2 (antibody, V domains shown, IgG) VH: QVQLVESGGGVVQPGRSLRLSCAASGFTFGSFGMNWVRQAPGKGLEWVSAITASGGSTFYADSVKGRFTISRDNSKNTLYLQMNSLRAEDTAVYYCAKDFTEVVGWLGMDVWGQGTTVTVSS VL: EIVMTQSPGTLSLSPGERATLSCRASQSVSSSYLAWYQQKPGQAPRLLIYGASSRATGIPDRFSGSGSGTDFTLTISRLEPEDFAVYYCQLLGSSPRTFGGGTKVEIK
Key: 59

Exercise: Requested field: EC50. Item: SB-1-4 (antibody, V domains shown, IgG) VH: QVQLVESGGGVVQPGGSLRLSCAASGFTFSAYGMNWVRQAPGKGLEWVSAIRASGGATYYADSVKGRFTISRDNSKNTLYLQMNSLRAEDTAVYYCAKDFTEVVGWLGMDVWGQGTTVTVSS VL: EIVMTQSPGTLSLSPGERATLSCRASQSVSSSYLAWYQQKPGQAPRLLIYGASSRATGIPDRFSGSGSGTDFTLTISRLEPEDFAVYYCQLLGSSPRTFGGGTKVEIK
Key: 73
